Quick reference: pEC50 of the listed items.
Target: TrkA (Homo sapiens)
Sequence (P04629 33-796): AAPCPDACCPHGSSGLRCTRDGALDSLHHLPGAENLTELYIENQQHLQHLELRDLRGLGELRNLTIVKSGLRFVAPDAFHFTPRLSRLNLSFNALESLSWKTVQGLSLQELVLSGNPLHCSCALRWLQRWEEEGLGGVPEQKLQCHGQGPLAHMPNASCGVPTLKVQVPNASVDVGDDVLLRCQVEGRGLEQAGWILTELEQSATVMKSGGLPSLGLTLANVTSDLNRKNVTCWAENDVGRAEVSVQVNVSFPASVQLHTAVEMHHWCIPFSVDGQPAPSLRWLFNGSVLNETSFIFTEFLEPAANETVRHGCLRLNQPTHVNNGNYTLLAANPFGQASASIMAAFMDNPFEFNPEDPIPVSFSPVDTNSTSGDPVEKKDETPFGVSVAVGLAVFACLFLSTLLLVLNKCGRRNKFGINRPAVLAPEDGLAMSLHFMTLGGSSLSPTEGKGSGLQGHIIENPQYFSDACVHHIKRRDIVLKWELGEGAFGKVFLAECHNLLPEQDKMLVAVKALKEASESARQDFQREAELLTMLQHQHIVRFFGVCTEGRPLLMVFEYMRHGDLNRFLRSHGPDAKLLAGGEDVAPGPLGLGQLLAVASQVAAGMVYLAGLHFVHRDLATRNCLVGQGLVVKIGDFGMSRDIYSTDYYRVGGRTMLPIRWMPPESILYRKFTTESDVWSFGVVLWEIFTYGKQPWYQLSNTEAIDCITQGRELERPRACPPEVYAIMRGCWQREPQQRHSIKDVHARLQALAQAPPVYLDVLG
Assay: Cell-based Enzyme Fragment Complementation (EFC) assay, U2OS cells over-expressing TrkA
Conditions: compound pre-mixed with ligand (NGF), final ligand concentration 10 ng/mL, 3 hours at room temperature, read-out: TrkA potency expressed as EC50
pEC50: −log10 of the molar value.
metric_name: pEC50

> print(dat)
                          chemical.structure  metric.name  numeric.value
 1  O=c1[nH]c(=O)n(-c2ccc(Oc3ccccc3)c(Cn3cccn3)c2)c(=O)n1-c1ccccc1        pEC50           6.80
 2  Cc1cccc(-n2c(=O)[nH]c(=O)n(-c3ccc(Oc4ccccc4)c(Cn4cnc(F)c4)c3)c2=O)c1        pEC50           7.00
 3  O=c1[nH]c(=O)n(-c2ccc(Oc3ccccc3)c(Cn3ccnc3)c2)c(=O)n1-c1ccccc1        pEC50           6.42
 4  Cn1c(=O)[nH]c(=O)n(-c2ccc(-c3ccccc3)c(Cn3cccn3)c2)c1=O        pEC50           5.88
 5  O=c1[nH]c(=O)n(-c2ccc(Oc3ccccc3)c(Cn3cc(F)cn3)c2)c(=O)n1-c1ccccc1        pEC50           6.74
 6  CCc1ccc(Oc2ccc(-n3c(=O)[nH]c(=O)n(C)c3=O)cc2Cn2cccn2)cc1        pEC50           5.96
 7  O=c1[nH]c(=O)n(-c2ccc(Oc3ccccc3)c(Cn3cncn3)c2)c(=O)n1-c1ccccc1        pEC50           6.28
 8  Cc1cccc(-n2c(=O)[nH]c(=O)n(-c3ccc(Oc4ccccc4)c(Cn4cc(F)cn4)c3)c2=O)c1        pEC50           6.92
 9  CCn1cc(Cc2cc(-n3c(=O)[nH]c(=O)n(-c4ccccc4)c3=O)ccc2Oc2ccccc2)cn1        pEC50           6.74
10  Cc1cccc(-n2c(=O)[nH]c(=O)n(-c3ccc(Oc4ccccc4)c(OCc4cnc[nH]4)c3)c2=O)c1        pEC50           5.78
11  COc1ccc(-n2c(=O)[nH]c(=O)n(-c3ccc(Oc4ccccc4)c(Cn4ccnc4)c3)c2=O)cc1        pEC50           6.14
12  Cc1cccc(-n2c(=O)[nH]c(=O)n(-c3ccc(Oc4ccc(F)cc4)c(Cn4ccnc4)c3)c2=O)c1        pEC50           6.72
13  Cc1cccc(-n2c(=O)[nH]c(=O)n(-c3ccc(Oc4ccccc4)c(-n4cnc(C)c4)c3)c2=O)c1        pEC50           6.19
14  Cc1cccc(-n2c(=O)[nH]c(=O)n(-c3ccc(Oc4ccccc4)c(OCc4ncc[nH]4)c3)c2=O)c1        pEC50           6.60
15  Cc1cccc(-n2c(=O)[nH]c(=O)n(-c3ccc(Oc4ccccc4)c(Cn4ccnc4)c3)c2=O)c1        pEC50           6.80

Reference for the values: patent US11840524B2
